I'd be grateful if you could share measured EC50 (luciferase reporter, T cell activation) for these entries.
Target: human BTLA expressed on cells (human, UniProt Q7Z6A9 31-289)
Experiment: cell-based or functional assay
The response must be a number in µg/mL with no trailing unit.

input: I'd like to know its EC50 (luciferase reporter, T cell activation). The binder in question is humanized antibody hu17 (antibody, V domains shown, also called hull [sic]; humanized antibody 17) VH: QVQLVQSGAEVKKPGASVKLSCKASGYNFKHTYAHWVRQAPGQGLEWIGRIDPANGNTKYDPKFQGRATMTADTASNTAYLELSSLRSEDTAVYYCVADHYGSSLLDYWGQGTLVTVSS VL: DIVMTQTPLSLSVTPGQPASISCKSSQSLLDSDGKTYLNWFQQRPGQSPRRLIYLVSKLDSGVPDRFSGSGSGTDFTLKISRVEAEDVGVYYCWQGTYFPYTFGQGTKLEIK
output: 0.257

input: Query (binder): chimeric antibody ch12 (antibody, human IgG4, V domains shown, T0010 gives only CDR numbers (HCDR 13-15, LCDR 10-12)) VH: EVQLQQSGADLVKPGASVKLSCTASGFNFKHTYAHWVKQRPEQGLEWIGRIDPANGNTKYDPKFQGKATMTADTASNAAFLQLSSLTSEDTAVYYCVADHYGSSLLDYWGQGTSLTVSS VL: EVVMTQTPLTLSVTIGQSASISCKSSQSLLDSDGKTYLNWFLQRPGQSPKRLMHLVSKLDSGVPDRFTGSGSGTDFTLKISGVEAEDLGVYYCWQGTYFPYTFGGGTKLETK ; field requested: EC50 (luciferase reporter, T cell activation)
output: 0.139

input: Look at this binder and give its reported EC50 (luciferase reporter, T cell activation). humanized antibody hu18 (antibody, IgG4, V domains shown, also called JS004; recombinant human anti-BTLA antibody) VH: QVQLVQSGAEVKKPGASVKLSCKASGYNFKHTYAHWVRQAPGQGLEWIGRIDPANGNTKYDPKFQGRATMTADTASNTAYLELSSLRSEDTAVYYCVADHYGSSLLDYWGQGTLVTVSS VL: DVVMTQTPLSLSVTPGQPASISCKSSQSLLDSDGKTYLNWFQQRPGQSPRRLIYLVSKLDSGVPDRFSGSGSGTDFTLKISRVEAEDVGVYYCWQGTYFPYTFGQGTKLEIK
output: 0.277
